Data provenance is patent US6407129B1.

Reported No. of survivors, i.v. is given for each of the following compounds.
System: Candida albicans T.A.
Assay: Protective effect at a single dose of 1.04 μmol/kg against experimental Candida albicans TA infection in mice (Experiment 3)
Format: in vivo
Settings: 1.04 μmol/kg i.v., n = 5 mice, survivors on day 7 after infection

| Compound | No. of survivors, i.v. |
| --- | --- |
| CCC(=O)OC[n+]1cnn(C[C@](O)(c2ccc(F)cc2F)[C@@H](C)N2CCN(c3ccc(-n4cnnn4)cc3)C2=O)c1.[Cl-] [Compound 14] | 1 |
| CCOC(=O)OC[n+]1cnn(C[C@](O)(c2ccc(F)cc2F)[C@@H](C)N2CCN(c3ccc(-n4cnnn4)cc3)C2=O)c1.[Cl-] [Compound 16] | 4 |
| CC(=O)OC[n+]1cnn(C[C@](O)(c2ccc(F)cc2F)[C@@H](C)N2CCN(c3ccc(-n4cnnn4)cc3)C2=O)c1.[Br-] [Compound 11] | 2 |
| CC(=O)OC[n+]1cnn(C[C@](O)(c2ccc(F)cc2F)[C@@H](C)N2CCN(c3ccc(-n4cnnn4)cc3)C2=O)c1.[Cl-] [Compound 12] | 3 |
